measurementTarget: Quinolone resistance protein NorA (Staphylococcus aureus) (UniProt P0A0J7)
Sequence (whole entry): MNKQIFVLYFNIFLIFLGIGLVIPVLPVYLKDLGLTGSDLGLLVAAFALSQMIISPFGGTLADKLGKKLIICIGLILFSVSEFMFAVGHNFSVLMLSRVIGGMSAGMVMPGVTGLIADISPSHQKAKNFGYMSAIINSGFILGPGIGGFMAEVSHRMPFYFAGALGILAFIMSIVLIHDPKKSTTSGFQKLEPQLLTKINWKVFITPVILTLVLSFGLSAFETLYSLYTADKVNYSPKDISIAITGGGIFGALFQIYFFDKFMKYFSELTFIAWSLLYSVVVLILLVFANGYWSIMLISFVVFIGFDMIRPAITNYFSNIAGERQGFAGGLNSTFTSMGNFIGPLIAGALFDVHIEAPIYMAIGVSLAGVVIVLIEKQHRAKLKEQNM
procedureDetails: Inhibition of NorA efflux pump in Staphylococcus aureus 1199B after 24 hrs by broth checkerboard method
measuredProperty: MIC

Worked examples, 4 compounds total:
compound	MIC
N#Cc1ccc(NC(=O)/C=C/C=C/c2ccc3c(c2)OCO3)cc1	> 100 µg/mL
CC(C)CNC(=O)/C=C/C=C/c1ccc2c(c1)OCO2	> 100 µg/mL
O=C(O)/C=C/C=C/c1ccc2c(c1)OCO2	> 100 µg/mL
CCN(CC)C(=O)/C=C/C=C/c1ccc2c(c1)OCO2	> 100 µg/mL

Inquiry: For `N#Cc1cccc(NC(=O)/C=C/C=C/c2ccc3c(c2)OCO3)c1` , what is its reported MIC?
Reply text: > 100 µg/mL

Inquiry: For O=C(/C=C/C=C/c1ccc2c(c1)OCO2)NCC(O)c1ccccc1 (stereo unspecified) , what is its reported MIC?
Reply text: > 100 µg/mL

Inquiry: For `CN1CCN(C(=O)/C=C/C=C/c2ccc3c(c2)OCO3)CC1` , what is its reported MIC?
Reply text: > 100 µg/mL

Inquiry: For `CCCNC(=O)/C=C/C=C/c1ccc2c(c1)OCO2` , what is its reported MIC?
Reply text: > 100 µg/mL

Inquiry: For `O=C(/C=C/C=C/c1ccc2c(c1)OCO2)Nc1nc2ccccc2s1` , what is its reported MIC?
Reply text: > 100 µg/mL

Inquiry: For `CC(C)NC(=O)/C=C/C=C/c1ccc2c(c1)OCO2` , what is its reported MIC?
Reply text: > 100 µg/mL

Inquiry: For `CC(=O)Nc1ccc(NC(=O)/C=C/C=C/c2ccc3c(c2)OCO3)cc1` , what is its reported MIC?
Reply text: > 100 µg/mL
